Every entry's value here was drawn from PubChem BioAssay.

Below: a set of entries, each annotated with reported fluorescence slope.
SYSTEM: Muscarinic acetylcholine receptor M4 (Homo sapiens)
METHOD_NOTES: M4-linked GIRK flux change, two-sided – cell-based, HEK293 M4/GIRK, thallium flux, BTC-AM, M4 allosteric agonist project, primary screen (AID 625);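 also: thallium influx through GIRK channels coupled to M4 in HEK293 cells with BTC-AM dye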
CONDITION_NOTES: at 10 µM, actives lie on both sides
Output spec: single numeric token, no unit.

Take a look at these entries with their results.
CCN1C(=O)N(CC)C2C1N(C(C)=O)C(=O)N2C(C)=O (stereo unspecified) | 0.0074
Cc1cc(C)c(NC(=O)C2CCCN2CCO)c(C)c1 (stereo unspecified) | 0.00468
O=C(c1ccco1)N1CCN(c2c(-c3ccccc3)c3cc(Cl)ccc3[nH]c2=O)CC1 | 0.00537

For CC(Sc1nnc(-c2cc3ccccc3o2)n1-c1ccccc1)C(=O)O (stereo unspecified) , what is its reported fluorescence slope? 0.00554

For COc1ccccc1-n1c(C)nnc1SCC(N)=O , what is its reported fluorescence slope? 0.00439

For COc1cccc(-n2c(C)nc3c(cnn3-c3ccc(Cl)cc3)c2=O)c1 , what is its reported fluorescence slope? 0.00702
